Tested on: Fibrinogen (Alexa647-labelled)
Assay: fibrinogen binders on compound microarrays, profiling panel, artefact control for SMM control-protein annotation, biochemical, small-molecule microarray, 635/667 nm fluorescence (AID 1131);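 also: z-score merges 667 nm fluorescence with per-spot signal-to-noise over triplicate slides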
Details: fibrinogen-A647 binding fluorescence, higher = more signal
class 1 means recorded composite z-score is 0.3 or above; class 0 means it is below 0.3.

>  <compound>
CCCCc1nc2c(c3c1C[C@H](C)OC3)CN(CCOc1ccccc1)CC2

>  <testedTarget>
Fibrinogen (Alexa647-labelled)

>  <classLabel>
class 1

$$$$
>  <compound>
CO[C@@H]1COC(=O)[C@H](CCSC)NC(=O)CC=C[C@@H](C)COC(=O)CCC[C@H]1C

>  <testedTarget>
Fibrinogen (Alexa647-labelled)

>  <classLabel>
class 0

$$$$
>  <compound>
C[n+]1ccc(-c2ccc(CO)cc2)cc1

>  <testedTarget>
Fibrinogen (Alexa647-labelled)

>  <classLabel>
class 0

$$$$
>  <compound>
CC(C)CON=C1C[C@@H](O)[C@@H](O)[C@@H]2[C@@H]3C(=O)N(C4CCCCC4)C(=O)[C@@H]3CC[C@H]12

>  <testedTarget>
Fibrinogen (Alexa647-labelled)

>  <classLabel>
class 1

$$$$
>  <compound>
C[C@H]1CC[C@H]2C(=O)O[C@H](COc3ccc(C(C)(C)C)cc3)CN2[C@@H]1c1ccc(Br)cc1

>  <testedTarget>
Fibrinogen (Alexa647-labelled)

>  <classLabel>
class 1

$$$$
>  <compound>
CCOC(=O)[C@H](CC(C)C)NC(=O)CCC1CC(OC(=O)NCc2ccc3c(c2)OCO3)CC2(CCCC(COC(=O)NCC3CCCCC3)O2)O1 (stereo partly specified)

>  <testedTarget>
Fibrinogen (Alexa647-labelled)

>  <classLabel>
class 0

$$$$
>  <compound>
COc1cccc([C@H]2Oc3ccc(OC)cc3C(=NO[C@H](C)c3cn([C@H](CO)Cc4ccccc4)nn3)[C@@H]2O)c1

>  <testedTarget>
Fibrinogen (Alexa647-labelled)

>  <classLabel>
class 0

$$$$
>  <compound>
CC(C)(C)N1C(=O)[C@H]2[C@H]3[C@H](O)[C@H](O)CC(=NOCc4ccccc4)[C@H]3CC[C@H]2C1=O

>  <testedTarget>
Fibrinogen (Alexa647-labelled)

>  <classLabel>
class 1

$$$$
>  <compound>
CC(C)=CCCC(C)=CCON=C1C[C@@H](O)[C@@H](O)[C@@H]2[C@@H]3C(=O)N(Cc4ccccc4)C(=O)[C@@H]3CC[C@H]12

>  <testedTarget>
Fibrinogen (Alexa647-labelled)

>  <classLabel>
class 1

$$$$
>  <compound>
COC(=O)C1=C(C)N(Cc2ccccc2)[C@]23O[C@](C(=O)OC)(C(=O)N2[C@@H]1c1ccccc1)C(C(=O)OC)=C3C(=O)OC

>  <testedTarget>
Fibrinogen (Alexa647-labelled)

>  <classLabel>
class 1

$$$$
>  <compound>
COC(=O)CC=C[C@@H](C)[C@@H](C=NO[C@@H](C)c1cn([C@H](CO)Cc2ccccc2)nn1)OC

>  <testedTarget>
Fibrinogen (Alexa647-labelled)

>  <classLabel>
class 1

$$$$
>  <compound>
O=C1[C@H]2[C@H]3[C@H](O)[C@H](O)CC(=NOC[C@@H](O)COCc4ccco4)[C@H]3CC[C@H]2C(=O)N1C[C@@H]1CCCO1

>  <testedTarget>
Fibrinogen (Alexa647-labelled)

>  <classLabel>
class 0

$$$$
>  <compound>
CCCNC(=O)OC[C@H]1O[C@H](CCON=C(C)CCN2CCCc3nc(C)c(C)cc32)C=C[C@@H]1Oc1ccc(OC)cc1

>  <testedTarget>
Fibrinogen (Alexa647-labelled)

>  <classLabel>
class 1

$$$$
>  <compound>
O=C(C=Cc1ccc2c(c1)OCO2)c1ccc(F)cc1

>  <testedTarget>
Fibrinogen (Alexa647-labelled)

>  <classLabel>
class 0

$$$$
